This collection of values is drawn from paper PMC8958504.

Target: hMAO-A (Homo sapiens)
Sequence (P21397 whole entry): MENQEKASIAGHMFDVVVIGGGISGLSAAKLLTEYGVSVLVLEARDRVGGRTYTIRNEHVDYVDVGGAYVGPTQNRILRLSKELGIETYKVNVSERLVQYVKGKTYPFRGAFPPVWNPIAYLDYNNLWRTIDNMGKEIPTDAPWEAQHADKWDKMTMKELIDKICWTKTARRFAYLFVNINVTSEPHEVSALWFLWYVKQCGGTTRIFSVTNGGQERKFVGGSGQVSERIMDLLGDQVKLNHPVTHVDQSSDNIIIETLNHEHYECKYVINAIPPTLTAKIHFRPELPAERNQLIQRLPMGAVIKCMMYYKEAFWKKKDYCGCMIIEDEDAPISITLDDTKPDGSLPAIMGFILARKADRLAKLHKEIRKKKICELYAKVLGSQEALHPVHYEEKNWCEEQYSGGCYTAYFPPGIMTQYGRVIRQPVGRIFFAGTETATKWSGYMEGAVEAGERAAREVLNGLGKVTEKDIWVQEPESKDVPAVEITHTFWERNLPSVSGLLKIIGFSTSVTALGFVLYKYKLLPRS
Test: biochemical
Details: read-out: hMAO-A (IC50); recombinant hMAO-A, p-tyramine substrate
Experimental: The hMAO-A/B inhibition of all compounds was determined using the Amplex Red MAO assay kit. Assays were performed following the general procedure previously described.[98] […] The specific fluorescence emission was calculated after subtracting the background activity, which was determined from wells containing all components except the hMAO isoforms, which were replaced with PBS.
Quick reference: IC50 of the listed items.
reportedMetric: IC50

INSERT INTO measurements (smilesdata, subjectoftest, result) VALUES
  ('C#CCNC/C=C/c1ccc(O)c(OC)c1', 'hMAO-A (Homo sapiens)', '30.3 µM'),
  ('COc1ccc(OC)c(/C=C/c2n[nH]c(=O)o2)c1', 'hMAO-A (Homo sapiens)', '> 50 µM'),
  ('C#CCNC(=O)/C=C/c1cccc(O)c1', 'hMAO-A (Homo sapiens)', '> 50 µM'),
  ('C#CCNC(=O)/C=C/c1ccc(OC)cc1', 'hMAO-A (Homo sapiens)', '> 50 µM'),
  ('O=c1[nH]nc(/C=C/c2cc(O)cc(O)c2)o1', 'hMAO-A (Homo sapiens)', '> 50 µM'),
  ('COc1ccc(/C=C/c2n[nH]c(=O)o2)cc1OC', 'hMAO-A (Homo sapiens)', '> 50 µM'),
  ('C#CCn1nc(/C=C/c2ccc(OC)cc2)oc1=O', 'hMAO-A (Homo sapiens)', '> 50 µM'),
  ('O=c1[nH]nc(/C=C/c2cccc(O)c2)o1', 'hMAO-A (Homo sapiens)', '> 50 µM'),
  ('C#CCNC(=O)/C=C/c1cccc(OC)c1', 'hMAO-A (Homo sapiens)', '> 50 µM'),
  ('C#CCn1nc(/C=C/c2cccc(OC)c2)oc1=O', 'hMAO-A (Homo sapiens)', '> 50 µM'),
  ('COc1cccc(/C=C/c2n[nH]c(=O)o2)c1', 'hMAO-A (Homo sapiens)', '> 50 µM'),
  ('O=c1[nH]nc(/C=C/c2ccc3c(c2)OCO3)o1', 'hMAO-A (Homo sapiens)', '> 50 µM'),
  ('C#CCNC(=O)/C=C/c1ccc(O)c(O)c1', 'hMAO-A (Homo sapiens)', '47 µM'),
  ('C#CCNC(=O)/C=C/c1ccc(O)c(OC)c1', 'hMAO-A (Homo sapiens)', '> 50 µM'),
  ('C#CCn1nc(/C=C/c2ccccc2)oc1=O', 'hMAO-A (Homo sapiens)', '> 50 µM'),
  ('COc1cc(/C=C/c2n[nH]c(=O)o2)cc(OC)c1OC', 'hMAO-A (Homo sapiens)', '> 50 µM'),
  ('COc1ccc(/C=C/c2n[nH]c(=O)o2)c(OC)c1', 'hMAO-A (Homo sapiens)', '> 50 µM'),
  ('C#CCNC(=O)/C=C/c1cccc(C#N)c1', 'hMAO-A (Homo sapiens)', '> 50 µM'),
  ('C#CCn1nc(/C=C/c2cccc(O)c2)oc1=O', 'hMAO-A (Homo sapiens)', '> 50 µM'),
  ('O=c1[nH]nc(/C=C/c2cccc([N+](=O)[O-])c2)o1', 'hMAO-A (Homo sapiens)', '> 50 µM'),
  ('C#CCNC(=O)/C=C/c1ccc(O)cc1', 'hMAO-A (Homo sapiens)', '> 50 µM'),
  ('O=c1[nH]nc(/C=C/c2ccc(O)c(O)c2)o1', 'hMAO-A (Homo sapiens)', '3.4 µM'),
  ('COc1cc(/C=C/c2n[nH]c(=O)o2)cc(OC)c1', 'hMAO-A (Homo sapiens)', '> 50 µM'),
  ('N#Cc1cccc(/C=C/c2n[nH]c(=O)o2)c1', 'hMAO-A (Homo sapiens)', '> 50 µM'),
  ('COc1ccc(/C=C/c2n[nH]c(=O)o2)cc1', 'hMAO-A (Homo sapiens)', '> 50 µM'),
  ('O=c1[nH]nc(/C=C/c2ccc(O)cc2)o1', 'hMAO-A (Homo sapiens)', '41.5 µM');

---

Test: Experimental pKa
Format: physicochemical
Details: experimental pKa for phenol
reportedMetric: pKa

INSERT INTO results (compound, reportedmetric, result) VALUES
  ('O=c1[nH]nc(/C=C/c2cccc(O)c2)o1 [3l]', 'pKa', 8.72);

---

Test: Oxygen radical absorbance capacity (ORAC-FL) assay
Settings: trolox = 1.0
Quick reference: ORAC (trolox equiv) of the listed items.
reportedMetric: ORAC (trolox equiv)

INSERT INTO results (compound, reportedmetric, measurementunit, valuequalifier, result) VALUES
  ('C#CCn1nc(/C=C/c2cccc(OC)c2)oc1=O [4d]', 'ORAC (trolox equiv)', 'trolox equiv', '=', 0.3),
  ('C#CCNC(=O)/C=C/c1ccc(O)c(OC)c1 [6n]', 'ORAC (trolox equiv)', 'trolox equiv', '=', 0.5),
  ('O=c1[nH]nc(/C=C/c2cccc([N+](=O)[O-])c2)o1 [2c]', 'ORAC (trolox equiv)', 'trolox equiv', '<', 0.1),
  ('O=c1[nH]nc(/C=C/c2ccc(O)cc2)o1 [3m]', 'ORAC (trolox equiv)', 'trolox equiv', '=', 3.2),
  ('O=c1[nH]nc(/C=C/c2ccc(O)c(O)c2)o1 [3o]', 'ORAC (trolox equiv)', 'trolox equiv', '=', 1.7),
  ('COc1ccc(/C=C/c2n[nH]c(=O)o2)cc1 [2e]', 'ORAC (trolox equiv)', 'trolox equiv', '<', 0.1),
  ('COc1cc(/C=C/c2n[nH]c(=O)o2)cc(OC)c1 [2j]', 'ORAC (trolox equiv)', 'trolox equiv', '<', 0.1),
  ('C#CCNC(=O)/C=C/c1cccc(O)c1 [6l]', 'ORAC (trolox equiv)', 'trolox equiv', '=', 3.0),
  ('C#CCn1nc(/C=C/c2ccccc2)oc1=O [4a]', 'ORAC (trolox equiv)', 'trolox equiv', '<', 0.1),
  ('N#Cc1cccc(/C=C/c2n[nH]c(=O)o2)c1 [2b]', 'ORAC (trolox equiv)', 'trolox equiv', '<', 0.1),
  ('COc1cc(/C=C/c2n[nH]c(=O)o2)cc(OC)c1OC [2k]', 'ORAC (trolox equiv)', 'trolox equiv', '<', 0.1),
  ('O=c1[nH]nc(/C=C/c2cccc(O)c2)o1 [3l]', 'ORAC (trolox equiv)', 'trolox equiv', '=', 3.8),
  ('C#CCNC(=O)/C=C/c1ccc(O)c(O)c1 [6o]', 'ORAC (trolox equiv)', 'trolox equiv', '=', 1.9),
  ('COc1ccc(/C=C/c2n[nH]c(=O)o2)cc1OC [2h]', 'ORAC (trolox equiv)', 'trolox equiv', '<', 0.1);

---

Target: QR2 (Mesocricetus auratus, UniProt A0ABM2YAB8)
Sequence (A0ABM2YAB8 1-231): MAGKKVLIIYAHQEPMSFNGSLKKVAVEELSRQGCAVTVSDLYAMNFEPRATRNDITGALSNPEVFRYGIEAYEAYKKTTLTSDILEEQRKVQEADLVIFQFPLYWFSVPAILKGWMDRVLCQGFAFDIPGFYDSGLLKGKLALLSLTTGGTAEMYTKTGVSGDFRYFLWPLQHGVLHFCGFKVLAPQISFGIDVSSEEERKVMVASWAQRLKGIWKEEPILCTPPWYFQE
pIC50: −log10 of the molar value.
# if value of pIC50 reaches 6, tag rule met; if it stays below, tag rule not met

INSERT INTO measurements (molecule, class) VALUES
  ('COc1ccc2[nH]cc(CCNC(C)=O)c2c1 [melatonin, reference compound]', 'rule met'),
  ('C#CCn1nc(/C=C/c2ccc(OC)cc2)oc1=O', 'rule met'),
  ('C#CCn1nc(/C=C/c2cccc(OC)c2)oc1=O', 'rule met'),
  ('COc1cc(/C=C/c2n[nH]c(=O)o2)cc(OC)c1', 'rule met'),
  ('C#CCn1nc(/C=C/c2ccccc2)oc1=O', 'rule not met'),
  ('C#CCNC/C=C/c1ccc(O)c(OC)c1', 'rule met'),
  ('C#CCn1nc(/C=C/c2cccc(O)c2)oc1=O', 'rule not met');

---

Test: in vitro
Type: in vitro ADME
Conditions: PAMPA, pH 7.4, class from PAMPA-BBB Pe; read-out: CNS-permeability prediction
reportedMetric: Papp at 240 min, 100 μg mL^–1

INSERT INTO results (compound, result) VALUES
  ('C#CCNC(=O)/C=C/c1ccc(O)c(O)c1 [6o]', '< 2 ×10⁻⁶ cm/s'),
  ('COc1ccc(/C=C/c2n[nH]c(=O)o2)c(OC)c1 [2f]', '2 to 4 ×10⁻⁶ cm/s'),
  ('C#CCn1nc(/C=C/c2cccc(OC)c2)oc1=O [4d]', '> 4 ×10⁻⁶ cm/s'),
  ('COc1cc(/C=C/c2n[nH]c(=O)o2)cc(OC)c1 [2j]', '2 to 4 ×10⁻⁶ cm/s'),
  ('C#CCn1nc(/C=C/c2ccccc2)oc1=O [4a]', '> 4 ×10⁻⁶ cm/s'),
  ('COc1ccc(/C=C/c2n[nH]c(=O)o2)cc1 [2e]', '> 4 ×10⁻⁶ cm/s'),
  ('O=c1[nH]nc(/C=C/c2ccc(O)cc2)o1 [3m]', '< 2 ×10⁻⁶ cm/s'),
  ('COc1cccc(/C=C/c2n[nH]c(=O)o2)c1 [2d]', '> 4 ×10⁻⁶ cm/s'),
  ('O=c1[nH]nc(/C=C/c2cc(O)cc(O)c2)o1 [3p]', '< 2 ×10⁻⁶ cm/s'),
  ('O=c1[nH]nc(/C=C/c2cccc([N+](=O)[O-])c2)o1 [2c]', '> 4 ×10⁻⁶ cm/s'),
  ('O=c1[nH]nc(/C=C/c2cccc(O)c2)o1 [3l]', '< 2 ×10⁻⁶ cm/s'),
  ('O=c1[nH]nc(/C=C/c2ccc(O)c(O)c2)o1 [3o]', '< 2 ×10⁻⁶ cm/s');
